Taken from patent US4439426A.

Test: Stability in acidic environment at 25° C. (half-life of initial microbiological activity)
Assay type: physicochemical
Settings: aqueous solution, pH 3
measurement_kind: half-life (h)
Express it in h; write the number only.

Documented half-life of "CC[C@H]1OC(=O)[C@H](C)[C@@H](O[C@H]2C[C@@](C)(O)[C@@H](O)[C@H](C)O2)[C@H](C)[C@@H](O[C@@H]2O[C@H](C)C[C@H](N(C)C)[C@H]2O)[C@](C)(O)C[C@](C)(F)C(=O)[C@H](C)[C@@H](O)[C@]1(C)O" : 41.5

====

Listing of recorded MIC by entry.
Tested on: Micrococcus luteus ATCC 9341 LRP 6
Assay: Bacteriostatic power in solid medium (MIC)
Type: cell-based
Details: Micrococcus luteus, ATCC9341; solid medium; read-out: Minimum inhibiting concentration
Express it in µg/mL; write the number only.

compound="CO[C@H]1C[C@H](O[C@H]2[C@H](C)[C@@H](O[C@@H]3O[C@H](C)C[C@H](N(C)C)[C@H]3O)[C@@H](C)C[C@@]3(CO3)C(=O)[C@H](C)[C@@H](O)[C@@H](C)[C@@H](C)OC(=O)[C@@H]2C)O[C@@H](C)[C@@H]1O [Oleandomycin, reference compound]" unit_of_measurement=µg/mL measured_number=0.049

Documented MIC of "CC[C@H]1OC(=O)[C@H](C)[C@@H](O[C@H]2C[C@@](C)(O)[C@@H](O)[C@H](C)O2)[C@H](C)[C@@H](O[C@@H]2O[C@H](C)C[C@H](N(C)C)[C@H]2O)[C@](C)(O)C[C@](C)(F)C(=O)[C@H](C)[C@@H](O)[C@H]1C" : 0.006

Documented MIC of "CC[C@H]1OC(=O)[C@H](C)[C@@H](O[C@H]2C[C@@](C)(O)[C@@H](O)[C@H](C)O2)[C@H](C)[C@@H](O[C@@H]2O[C@H](C)C[C@H](N(C)C)[C@H]2O)[C@](C)(O)C[C@](C)(F)C(=O)[C@H](C)[C@@H](O)[C@]1(C)O" : 0.012

Documented MIC of "CC[C@H]1OC(=O)[C@H](C)[C@@H](O[C@H]2C[C@@](C)(OC)[C@@H](O)[C@H](C)O2)[C@H](C)[C@@H](O[C@@H]2O[C@H](C)C[C@H](N(C)C)[C@H]2O)[C@](C)(O)C[C@](C)(F)C(=O)[C@H](C)[C@@H](O)[C@H]1C" : 0.012

Documented MIC of CC[C@H]1OC(=O)[C@H](C)[C@@H](O[C@H]2C[C@@](C)(OC)[C@@H](O)[C@H](C)O2)[C@H](C)[C@@H](O[C@@H]2O[C@H](C)C[C@H](N(C)C)[C@H]2O)[C@](C)(O)C[C@@H](C)C(=O)[C@H](C)[C@@H](O)[C@H]1C [Erythromycin B, reference compound] : 0.006

====

System: Streptococcus pneumoniae ATCC 6303 LRP 35
Experiment: Minimum bactericidal concentration (MBC)
Assay type: cell-based
measurement_kind: MBC/MIC
The reply should be a number, written without any unit.

compound="CC[C@H]1OC(=O)[C@H](C)[C@@H](O[C@H]2C[C@@](C)(OC)[C@@H](O)[C@H](C)O2)[C@H](C)[C@@H](O[C@@H]2O[C@H](C)C[C@H](N(C)C)[C@H]2O)[C@](C)(O)C[C@@H](C)C(=O)[C@H](C)[C@@H](O)[C@H]1C [Erythromycin B, reference compound]" measurement_kind=MBC/MIC measured_number=4
compound=CC[C@H]1OC(=O)[C@H](C)[C@@H](O[C@H]2C[C@@](C)(O)[C@@H](O)[C@H](C)O2)[C@H](C)[C@@H](O[C@@H]2O[C@H](C)C[C@H](N(C)C)[C@H]2O)[C@](C)(O)C[C@](C)(F)C(=O)[C@H](C)[C@@H](O)[C@H]1C measurement_kind=MBC/MIC measured_number=4

Now consider a different compound.
Log: Streptococcus pneumoniae ATCC 6303 LRP 35, compound "CC[C@H]1OC(=O)[C@H](C)[C@@H](O[C@H]2C[C@@](C)(OC)[C@@H](O)[C@H](C)O2)[C@H](C)[C@@H](O[C@@H]2O[C@H](C)C[C@H](N(C)C)[C@H]2O)[C@](C)(O)C[C@](C)(F)C(=O)[C@H](C)[C@@H](O)[C@H]1C" , MBC/MIC = 1

====

Test: Serum concentrations in the rat after oral administration
Assay type: in vivo
Conditions: rat, in vivo, po, 100 mg/kg, 100 mg/kg per os; 6 hours; read-out: Serum concentration, average
measurement_kind: concentration at 6 h
Please format your answer as a value with the unit trailing.

Documented concentration at 6 h of CC[C@H]1OC(=O)[C@H](C)[C@@H](O[C@H]2C[C@@](C)(OC)[C@@H](O)[C@H](C)O2)[C@H](C)[C@@H](O[C@@H]2O[C@H](C)C[C@H](N(C)C)[C@H]2O)[C@](C)(O)C[C@](C)(F)C(=O)[C@H](C)[C@@H](O)[C@]1(C)O [P-80206, (8S)-8-fluoroerythromycin A] : 1170 ng/mL

====

Listing of recorded MIC by entry.
Tested on: Streptococcus pyogenes ATCC 8668 LRP 197
Assay: Bacteriostatic power in solid medium (MIC)
Type: cell-based
Conditions: Streptococcus pyogenes, ATCC8668; solid medium; read-out: Minimum inhibiting concentration
Express it in µg/mL; write the number only.

compound="CC[C@H]1OC(=O)[C@H](C)[C@@H](O[C@H]2C[C@@](C)(OC)[C@@H](O)[C@H](C)O2)[C@H](C)[C@@H](O[C@@H]2O[C@H](C)C[C@H](N(C)C)[C@H]2O)[C@](C)(O)C[C@@H](C)C(=O)[C@H](C)[C@@H](O)[C@H]1C [Erythromycin B, reference compound]" measured_number=0.024

Now consider a different compound.
Log: Streptococcus pyogenes ATCC 8668 LRP 197, compound "CC[C@H]1OC(=O)[C@H](C)[C@@H](O[C@H]2C[C@@](C)(O)[C@@H](O)[C@H](C)O2)[C@H](C)[C@@H](O[C@@H]2O[C@H](C)C[C@H](N(C)C)[C@H]2O)[C@](C)(O)C[C@](C)(F)C(=O)[C@H](C)[C@@H](O)[C@H]1C" , MIC = 0.024

====

Listing of recorded MIC by entry.
Test system: Streptococcus pneumoniae ATCC 6303 LRP 35
Assay: Bacteriostatic power in liquid medium (MIC)
Assay type: cell-based
Conditions: Streptococcus pneumoniae, ATCC6303; liquid medium; read-out: Minimum inhibiting concentration
Text: the bacteriostatic power, expressed as the minimum inhibiting concentration (MIC) against both aerobic and anaerobic, Gram positive and Gram negative, bacterial stocks: the related results are reported in the tables 2 and 3.
Express it in µg/mL; write the number only.

molecule=CC[C@H]1OC(=O)[C@H](C)[C@@H](O[C@H]2C[C@@](C)(O)[C@@H](O)[C@H](C)O2)[C@H](C)[C@@H](O[C@@H]2O[C@H](C)C[C@H](N(C)C)[C@H]2O)[C@](C)(O)C[C@](C)(F)C(=O)[C@H](C)[C@@H](O)[C@]1(C)O measurement_kind=MIC unit_of_measurement=µg/mL measured_number=0.097

Documented MIC of "CC[C@H]1OC(=O)[C@H](C)[C@@H](O[C@H]2C[C@@](C)(OC)[C@@H](O)[C@H](C)O2)[C@H](C)[C@@H](O[C@@H]2O[C@H](C)C[C@H](N(C)C)[C@H]2O)[C@](C)(O)C[C@](C)(F)C(=O)[C@H](C)[C@@H](O)[C@H]1C" : 0.049

Documented MIC of "CC[C@H]1OC(=O)[C@H](C)[C@@H](O[C@H]2C[C@@](C)(O)[C@@H](O)[C@H](C)O2)[C@H](C)[C@@H](O[C@@H]2O[C@H](C)C[C@H](N(C)C)[C@H]2O)[C@](C)(O)C[C@](C)(F)C(=O)[C@H](C)[C@@H](O)[C@H]1C" : 0.049

Documented MIC of CC[C@H]1OC(=O)[C@H](C)[C@@H](O[C@H]2C[C@@](C)(OC)[C@@H](O)[C@H](C)O2)[C@H](C)[C@@H](O[C@@H]2O[C@H](C)C[C@H](N(C)C)[C@H]2O)[C@](C)(O)C[C@@H](C)C(=O)[C@H](C)[C@@H](O)[C@H]1C [Erythromycin B, reference compound] : 0.049

Documented MIC of CO[C@H]1C[C@H](O[C@H]2[C@H](C)[C@@H](O[C@@H]3O[C@H](C)C[C@H](N(C)C)[C@H]3O)[C@@H](C)C[C@@]3(CO3)C(=O)[C@H](C)[C@@H](O)[C@@H](C)[C@@H](C)OC(=O)[C@@H]2C)O[C@@H](C)[C@@H]1O [Oleandomycin, reference compound] : 0.195

====

Test system: Staphylococcus aureus ATCC 14154 LRP 78
Assay: Bacteriostatic power in solid medium (MIC)
Format: cell-based
Settings: Staphylococcus aureus, ATCC14154, read-out: Minimum inhibiting concentration
measurement_kind: MIC (mg/L)
Express it in mg/L; write the number only.

Documented MIC of CC[C@H]1OC(=O)[C@H](C)[C@@H](O[C@H]2C[C@@](C)(OC)[C@@H](O)[C@H](C)O2)[C@H](C)[C@@H](O[C@@H]2O[C@H](C)C[C@H](N(C)C)[C@H]2O)[C@](C)(O)C[C@@H](C)C(=O)[C@H](C)[C@@H](O)[C@]1(C)O [Erythromycin A, reference compound] : 25
